# test.details: NCI Yeast Anticancer Drug Screen. Data for the rad50 strain (AID 155)
# condition: S. cerevisiae rad50 strain growth inhibition; at 50.0 µM (retest, dose inferred, filed as 5.0); active compounds read high
The panel holds about 79,000 compounds, 15% with a hit somewhere; the sample as a whole holds those more often.
# if value of growth inhibition reaches 20%, tag criterion met; if it stays below, tag criterion not met

Worked examples, 4 compounds total:
Cc1ccc(C(=O)OCCN2CCOCC2)c([N+](=O)[O-])c1OCc1ccccc1 | criterion met
O=[N+]([O-])c1ccc(CSSCc2ccc([N+](=O)[O-])cc2)cc1 | criterion not met
COC(=O)N/N=C(/CC1(O)C(=O)Nc2ccccc21)c1ccc(Cl)cc1Cl (centres undefined) | criterion met
O=C(c1ccccc1)N(c1ccccc1)c1ccc2ccccc2c1 | criterion not met

stdin: Decide: is the reported value of growth inhibition for C=CC1(c2ccc(-c3ccccc3)cc2)OCCO1 equal to or greater than 20%?
stdout: criterion not met

stdin: # check: growth inhibition of O=[N+]([O-])c1cc2[nH]cnc2c([N+](=O)[O-])c1NCc1ccccc1 is greater than or equal to 20%
stdout: criterion met

stdin: For this compound, is measured growth inhibition 20% or higher? S=c1[nH]nc(SCc2ccc(Cl)c(Cl)c2)c2[nH]cnc12
stdout: criterion not met

stdin: Hi, just wondering whether COc1ccccc1NC(=O)O/N=C(/Cl)C(C)C shows growth inhibition of 20% or higher.
stdout: criterion met

stdin: Does the compound Cc1nc(Nc2ccc(Cl)cc2)sc1C(=O)NNC(=O)C(=O)NN have recorded growth inhibition that is 20% or more?
stdout: criterion not met

Data origin, for the record: PubChem BioAssay (NCI)
